Values from patent US20220073532A1

# assayed_system: cGAS (Homo sapiens)
# Sequence (Q8N884 whole entry): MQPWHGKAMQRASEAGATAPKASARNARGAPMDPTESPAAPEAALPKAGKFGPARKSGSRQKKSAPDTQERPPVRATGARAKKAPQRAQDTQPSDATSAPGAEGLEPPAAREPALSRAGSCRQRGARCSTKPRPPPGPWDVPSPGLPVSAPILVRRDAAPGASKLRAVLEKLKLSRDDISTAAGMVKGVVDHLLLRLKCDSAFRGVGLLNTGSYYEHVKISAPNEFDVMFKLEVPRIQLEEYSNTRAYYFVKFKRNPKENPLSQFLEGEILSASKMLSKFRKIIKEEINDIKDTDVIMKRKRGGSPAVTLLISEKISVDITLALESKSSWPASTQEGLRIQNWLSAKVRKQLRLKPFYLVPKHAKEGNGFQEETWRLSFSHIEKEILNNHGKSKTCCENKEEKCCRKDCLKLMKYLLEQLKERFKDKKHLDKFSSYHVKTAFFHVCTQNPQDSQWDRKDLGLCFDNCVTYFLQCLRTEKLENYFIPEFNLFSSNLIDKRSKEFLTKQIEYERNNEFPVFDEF
# experimental_protocol: cGAS enzymatic assay (FP/TR-FRET detection of cGAMP)
# Assay type: biochemical
# Design: The cGAS assay was used to screen 100,000 compounds with full-length human cGAS; 6xHis; made in house
# assay_context: cGAS (30 nM), with Mn^2+; read-out: Inhibition cGAS + Mn^2+
# Procedure: Some exemplary compounds of the disclosure were tested for inhibition of cGAS (30 nM). […] A homogenous cGAS enzymatic assay was developed with fluorescence polarization (FP) and time-resolved Forster resonance energy transfer (TR-FRET) readouts (FIG. 2A-2D). […]
parameter: IC50

Solved entries (count: 3):
1) CCc1nc(N(C)[C@@H](C)C(=O)O)c2oc3ccccc3c2n1 | > 10 µM
2) Cc1nc(N2CCC[C@H]2C(=O)O)c2oc3ccccc3c2n1 | 1 to 10 µM
3) COc1nc(N2CCC[C@H]2C(=O)O)c2oc3ccccc3c2n1 | 1 to 10 µM

Hello, please tell me recorded IC50 for this one: Cc1nc(N2C[C@@H](Nc3n[nH]c4ccccc34)C[C@H]2C(=O)O)c2oc3ccccc3c2n1
1 to 10 µM

Give a short answer stating reported IC50 for CCc1nc(N2CCC[C@H]2C(=O)O)c2oc3ccccc3c2n1 [Compound 7] .
1 to 10 µM

Retrieve IC50 measured for O=C(O)[C@@H]1CCCN1c1nc(C2CCC2)nc2c1oc1ccccc12 and print it.
> 10 µM
